List of log10 IC50 values.
# subject_of_test: human CCR6 (Homo sapiens, UniProt P51684)
# Sequence (P51684 whole entry): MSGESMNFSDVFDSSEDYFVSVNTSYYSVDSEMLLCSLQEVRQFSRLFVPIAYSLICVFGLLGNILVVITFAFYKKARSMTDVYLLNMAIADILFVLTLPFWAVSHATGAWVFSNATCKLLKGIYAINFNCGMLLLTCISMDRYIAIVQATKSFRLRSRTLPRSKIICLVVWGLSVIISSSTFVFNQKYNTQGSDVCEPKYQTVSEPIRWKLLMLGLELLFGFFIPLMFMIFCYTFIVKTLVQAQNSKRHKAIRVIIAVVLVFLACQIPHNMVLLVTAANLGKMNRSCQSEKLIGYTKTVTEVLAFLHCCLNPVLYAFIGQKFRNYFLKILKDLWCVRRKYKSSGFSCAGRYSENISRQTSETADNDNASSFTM
# assay: human CCR6 calcium flux activity (FLIPR, HEK293 cells stably expressing human CCR6, CCL20 stimulation)
# measurement_context: HEK293 cells stably expressing human CCR6, EC80 human MIP-3 alpha/CCL20; read-out: CCR6 inhibitory activity, IC50
Recorded IC50 (log10, nM)

Sample records with log10 IC50:
Cc1cccnc1[C@H](Nc1c(Nc2ccnc(C(=O)N(C)C)c2O)c(=O)c1=O)C12CC(C1)C2; 1.25
Cc1ccc(F)nc1[C@H](Nc1c(Nc2ccnc(C(=O)N(C)C)c2O)c(=O)c1=O)C1(C)CCCC1; 1.16
CN(C)C(=O)c1nccc(Nc2c(N[C@@H](c3ncccc3CF)C3(C)CCCC3)c(=O)c2=O)c1O; 1.75
CN(C)C(=O)c1nccc(Nc2c(N[C@@H](c3cc(Cl)ccn3)C3(C)CCCC3)c(=O)c2=O)c1O; 0.95
CN(C)C(=O)c1nccc(Nc2c(N[C@@H](c3nc(F)ccc3F)C3(C)CCCC3)c(=O)c2=O)c1O; -0.05

Query :: What does the record list as log10 IC50 for Cc1cccnc1[C@H](Nc1c(Nc2ccc(F)c(C(=O)N(C)C)c2O)c(=O)c1=O)C1(C)CCCC1 ?
Result :: 0.60

Query :: What does the record list as log10 IC50 for CN(C)C(=O)c1nccc(Nc2c(N[C@@H](c3cccc(Cl)n3)C3(C)CCCC3)c(=O)c2=O)c1O ?
Result :: 1.34

Query :: What does the record list as log10 IC50 for CN(C)C(=O)c1nccc(Nc2c(N[C@@H](c3nc(Cl)ccc3F)C3(C)CCCC3)c(=O)c2=O)c1O ?
Result :: 0.18

Query :: What does the record list as log10 IC50 for CN(C)C(=O)c1nccc(Nc2c(N[C@@H](c3ncccc3Cl)C3(C)CCCC3)c(=O)c2=O)c1O ?
Result :: 0.70
